Assay: Rodent pharmacokinetic study
Format: in vivo, Male wistar rats
Settings: plasma; Wistar/Male rat, 3 mg/kg oral vs 1 mg/kg intravenous
Met means recorded bioavailability is 40% or above; Not met means it is below 40%.

Record CC(C)(O)CN1CCC(F)(CNC(=O)c2cc(Cl)c(N)c3cccnc23)CC1.O=C(O)C(O)C(O)C(=O)O [Example 37] ; criterion: bioavailability no lower than 40%. Met?
Not met

Textbook exercise: given the entry Nc1c(Cl)cc(C(=O)NCC2(F)CCN(CC3(O)CCOCC3)CC2)c2ncccc12.O=C(O)C(O)C(O)C(=O)O [Example 27] , state whether its bioavailability is greater than or equal to 40%.
Not met

Quick check: does CC(C)(O)CN1CCC(F)(CNC(=O)c2cc(F)c(N)c3cccnc23)CC1.O=C(O)C(O)C(O)C(=O)O [Example 43] have bioavailability greater than or equal to 40%?
Not met

---

Test system: Male Wistar rats
Experiment: Object recognition task model
Format: in vivo
Settings: choice trial T2, p.o.; dose mg/kg: Ex 1 0.1, Ex 2 0.03, Ex 4 0.03, Ex 13 1, Ex 23 0.01, Ex 37 10, Ex 43 0.3
The following compounds are shown together with reported Exploration time mean ± S.E.M, Familiar object values.
For clarity, give the value followed by its unit.

Some solved entries appear below for comparison.
{"columns": ["COMPOUND", "MEASURED RESULT"],
 "data": [
  ["Nc1c(Cl)cc(C(=O)NCC2CCN(CC3CCOC3)CC2)c2ncccc12.O=C(O)C(O)C(O)C(=O)O (racemic)", "6.96 ± 1.02 s"],
  ["CC(C)(O)CN1CCC(F)(CNC(=O)c2cc(Cl)c(N)c3cccnc23)CC1.O=C(O)C(O)C(O)C(=O)O", "8.45 ± 1.65 s"],
  ["Nc1c(Cl)cc(C(=O)NCC2CCN(CC3CCOCC3)CC2)c2ncccc12.O=C(O)/C=C/C(=O)O", "5.94 ± 0.71 s"],
  ["Nc1c(Cl)cc(C(=O)NCC2CCN(CC3(O)CCOCC3)CC2)c2ncccc12.O=C(O)C(O)C(O)C(=O)O", "8.80 ± 1.46 s"],
  ["CC(C)(O)CN1CCC(F)(CNC(=O)c2cc(F)c(N)c3cccnc23)CC1.O=C(O)C(O)C(O)C(=O)O", "9.30 ± 0.93 s"]
]}

Give measured Exploration time mean ± S.E.M, Familiar object for Nc1c(Cl)cc(C(=O)NCC2CCN(CC3CCOCC3)CC2)c2ncccc12.O=C(O)C(O)C(O)C(=O)O (Male Wistar rats).
8.64 ± 1.33 s

Determine reported Exploration time mean ± S.E.M, Familiar object for Nc1c(Cl)cc(C(=O)NCC2C3CN(CC4CCOCC4)CC23)c2ncccc12.O=C(O)C(O)C(O)C(=O)O (stereo not shown) ; test system: Male Wistar rats.
7.46 ± 1.30 s

---

Biological target: recombinant human 5-HT4 receptor (Homo sapiens)
Construct: expressed in transfected cells
Experiment: Determination of EC50 values for 5-HT4 receptor (CHO cells, pCRE-Luc reporter)
Type: cell-based
Conditions: CHO
Procedure: Determination of EC50 Values for 5-HT4 Receptor A stable CHO cell line expressing recombinant human 5-HT4 receptor and pCRE-Luc reporter system was used for cell-based assay. The assay offers a non-radioactive based approach to determine binding of a compound to GPCRs. In this specific assay, the level of intracellular cyclic AMP, which is modulated by activation, or inhibition of the receptor is measured. […]
EXPERIMENTAL READOUT: Emax (%)
The figure you give is taken to be in %; do not add the unit.

Answered examples (7):
{"columns": ["MOLECULE", "TARGET SYSTEM", "Emax [%]"],
 "data": [
  ["Nc1c(Cl)cc(C(=O)NCC2(O)CCN(CC3CCOCC3)CC2)c2ncccc12", "recombinant human 5-HT4 receptor (Homo sapiens)", 86],
  ["CC(C)(O)CN1CCC(CNC(=O)c2cc(F)c(N)c3cccnc23)CC1", "recombinant human 5-HT4 receptor (Homo sapiens)", 64],
  ["CC(C)(O)CN1CCC(CNC(=O)c2cc(Cl)c(N)c3cccnc23)CC1", "recombinant human 5-HT4 receptor (Homo sapiens)", 48],
  ["CC(C)(O)CN1CCC(CNC(=O)c2cc(Br)c(N)c3cccnc23)CC1", "recombinant human 5-HT4 receptor (Homo sapiens)", 52],
  ["Nc1c(Cl)cc(C(=O)NCC2CCN(CC3(O)CCOCC3)CC2)c2ncccc12.O=C(O)C(O)C(O)C(=O)O", "recombinant human 5-HT4 receptor (Homo sapiens)", 67],
  ["Nc1c(Cl)cc(C(=O)NCC2CCN(CC3(F)CCOCC3)CC2)c2ncccc12", "recombinant human 5-HT4 receptor (Homo sapiens)", 65],
  ["CC(C)(O)CN1CCC(F)(CNC(=O)c2cc(F)c(N)c3cccnc23)CC1.O=C(O)C(O)C(O)C(=O)O", "recombinant human 5-HT4 receptor (Homo sapiens)", 43]
]}

--- query ---
Input Nc1c(Cl)cc(C(=O)NCC2CCN(CC3CCOC3)CC2)c2ncccc12.O=C(O)C(O)C(O)C(=O)O (racemic) , output reported Emax.
56

---

Assay: Rodent pharmacokinetic study
Format: in vivo, Male wistar rats
Conditions: plasma; Wistar/Male rat, 1 mg/kg intravenous (bolus)
compounds and their reported half-life
Report the value in h with no unit label.

Recorded half-life, per entry:
{"columns": ["COMPOUND", "EXPERIMENTAL READOUT", "UNITS", "MEASURED RESULT"],
 "data": [
  ["CC(C)(O)CN1CCC(F)(CNC(=O)c2cc(Cl)c(N)c3cccnc23)CC1.O=C(O)C(O)C(O)C(=O)O", "half-life", "h", 1.9],
  ["Nc1c(Cl)cc(C(=O)NCC2CCN(CC3CCOCC3)CC2)c2ncccc12.O=C(O)/C=C/C(=O)O", "half-life", "h", 1.9],
  ["Nc1c(Cl)cc(C(=O)NCC2C3CN(CC4CCOCC4)CC23)c2ncccc12.O=C(O)C(O)C(O)C(=O)O (stereo not drawn)", "half-life", "h", 1.6]
]}

For CC(C)(O)CN1CCC(F)(CNC(=O)c2cc(F)c(N)c3cccnc23)CC1.O=C(O)C(O)C(O)C(=O)O , write its half-life.
1.9

Return reported half-life. Input compound: Nc1c(Cl)cc(C(=O)NCC2(F)CCN(CC3(O)CCOCC3)CC2)c2ncccc12.O=C(O)C(O)C(O)C(=O)O
1.7

Report half-life, nothing else, for this compound: Nc1c(Cl)cc(C(=O)NCC2CCN(CC3CCOCC3)CC2)c2ncccc12.O=C(O)C(O)C(O)C(=O)O
1.5

---

Target: recombinant human 5-HT4 receptor (Homo sapiens)
Assay: Determination of EC50 values for 5-HT4 receptor (CHO cells, pCRE-Luc reporter)
Details: CHO cells, human 5-HT4 receptor, luciferase reporter, 4 hours incubation
Description: Determination of EC50 Values for 5-HT4 Receptor A stable CHO cell line expressing recombinant human 5-HT4 receptor and pCRE-Luc reporter system was used for cell-based assay. The assay offers a non-radioactive based approach to determine binding of a compound to GPCRs. In this specific assay, the level of intracellular cyclic AMP, which is modulated by activation, or inhibition of the receptor is measured. […]
EXPERIMENTAL READOUT: pEC50
A value of pEC50 is the negative decimal logarithm of a concentration given in moles per litre.

{"columns": ["COMPOUND", "TARGET SYSTEM", "EXPERIMENTAL READOUT", "MEASURED RESULT"],
 "data": [
  ["Nc1c(Cl)cc(C(=O)NCC2CCN(CC3CCOCC3)CC2)c2ncccc12.O=C(O)/C=C/C(=O)O", "recombinant human 5-HT4 receptor (Homo sapiens)", "pEC50", 10.40],
  ["CC(C)(F)CN1CCC(F)(CNC(=O)c2cc(Cl)c(N)c3cccnc23)CC1", "recombinant human 5-HT4 receptor (Homo sapiens)", "pEC50", 8.05],
  ["Nc1c(Br)cc(C(=O)NCC2C3CN(CC4CCOCC4)CC23)c2ncccc12 (centres unmarked)", "recombinant human 5-HT4 receptor (Homo sapiens)", "pEC50", 9.10],
  ["CC(C)(O)CN1CCC(F)(CNC(=O)c2cc(Cl)c(N)c3cccnc23)CC1.Cl [Example 38, hydrochloride]", "recombinant human 5-HT4 receptor (Homo sapiens)", "pEC50", 8.89]
]}

Moving on to the next compound.
Name the recorded pEC50 of the item Nc1c(Cl)cc(C(=O)NC2CCN(CC3CCOCC3)CC2)c2ncccc12 in your answer.
8.60

---

Molecular target: recombinant human 5-HT4 receptor (Homo sapiens, UniProt Q13639)
Construct: expressed in transfected cells
Sequence (Q13639 whole entry): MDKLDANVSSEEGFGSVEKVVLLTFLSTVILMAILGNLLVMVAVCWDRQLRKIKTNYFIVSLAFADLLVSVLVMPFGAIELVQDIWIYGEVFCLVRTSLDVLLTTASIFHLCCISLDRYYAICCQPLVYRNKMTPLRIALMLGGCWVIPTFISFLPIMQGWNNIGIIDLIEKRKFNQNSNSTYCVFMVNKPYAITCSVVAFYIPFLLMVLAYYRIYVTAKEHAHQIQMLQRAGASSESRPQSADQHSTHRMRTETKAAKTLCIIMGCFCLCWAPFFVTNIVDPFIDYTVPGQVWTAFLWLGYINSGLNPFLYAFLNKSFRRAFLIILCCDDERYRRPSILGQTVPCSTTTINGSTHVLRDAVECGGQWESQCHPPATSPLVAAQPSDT
Assay: Determination of EC50 values for 5-HT4 receptor (CHO cells, pCRE-Luc reporter)
Assay type: cell-based
Settings: CHO
EXPERIMENTAL READOUT: Emax (%)
Number only, in %; omit the unit.

{"columns": ["COMPOUND", "Emax, %"],
 "data": [
  ["Nc1c(Cl)cc(C(=O)NCC2(O)CCN(CC3(O)CCOCC3)CC2)c2ncccc12", 84],
  ["Nc1c(Cl)cc(C(=O)NCC2C3CN(CC4CC4)CC23)c2ncccc12 (centres unmarked)", 87],
  ["CC(C)(CN1CCC(CNC(=O)c2cc(Cl)c(N)c3cccnc23)CC1)C(=O)O", 60],
  ["COCCCN1CC2C(CNC(=O)c3cc(Cl)c(N)c4cccnc34)C2C1 (centres unmarked)", 70],
  ["CC(C)(O)CN1CC2C(CNC(=O)c3cc(Cl)c(N)c4cccnc34)C2C1 (centres unmarked)", 63],
  ["Nc1c(Cl)cc(C(=O)NCC2C3CN(CC4(O)CCOCC4)CC23)c2ncccc12 (centres unmarked)", 93],
  ["Nc1c(Br)cc(C(=O)NCC2CCN(CC3CCOCC3)CC2)c2ncccc12", 62],
  ["Nc1c(F)cc(C(=O)NCC2CCN(CC3(O)CCOCC3)CC2)c2ncccc12", 66],
  ["Nc1c(Cl)cc(C(=O)NCC2(F)CCN(CC3(O)CCOCC3)CC2)c2ncccc12.O=C(O)C(O)C(O)C(=O)O", 63],
  ["Nc1c(Cl)cc(C(=O)NCC2(F)CCN(CC3CCOCC3)CC2)c2ncccc12", 58]
]}

Enter measured Emax, system recombinant human 5-HT4 receptor (Homo sapiens, UniProt Q13639), for the compound shown: CC(C)(O)CN1CCC(F)(CNC(=O)c2cc(Br)c(N)c3cccnc23)CC1
89

Jot down Emax (recombinant human 5-HT4 receptor (Homo sapiens, UniProt Q13639)) of COCC(C)(C)CN1CCC(CNC(=O)c2cc(Cl)c(N)c3cccnc23)CC1 .
72
